Answer each item with its documented inhibition at 200 µM.
# STUDY_SYSTEM: MDM2 (Homo sapiens, UniProt Q00987)
# Sequence (Q00987 whole entry): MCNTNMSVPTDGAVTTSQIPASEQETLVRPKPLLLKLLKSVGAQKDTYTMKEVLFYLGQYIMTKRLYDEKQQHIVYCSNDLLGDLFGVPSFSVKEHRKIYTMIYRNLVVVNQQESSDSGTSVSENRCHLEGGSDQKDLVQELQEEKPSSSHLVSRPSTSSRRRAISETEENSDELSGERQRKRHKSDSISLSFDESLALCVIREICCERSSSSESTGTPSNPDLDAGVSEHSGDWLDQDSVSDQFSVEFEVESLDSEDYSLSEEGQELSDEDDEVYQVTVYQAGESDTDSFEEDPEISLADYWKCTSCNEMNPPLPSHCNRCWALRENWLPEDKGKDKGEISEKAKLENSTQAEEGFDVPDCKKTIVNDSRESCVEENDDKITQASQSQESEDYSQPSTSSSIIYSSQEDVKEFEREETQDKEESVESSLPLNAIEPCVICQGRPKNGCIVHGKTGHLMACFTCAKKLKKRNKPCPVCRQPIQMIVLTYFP
# METHOD_SUMMARY: MDM2 binding assay (fluorescence polarization)
# CONDITION_INFO: read-out: Inhibition (200 μM, %), 200 μM compound

Exam item: Any idea what inhibition at 200 µM came out for `COc1cccc(OCC(=O)N(Cc2nc(-c3ccccc3)no2)C2CCCCC2)c1` on MDM2 (Homo sapiens, UniProt Q00987)?
Marked response: > 80%

Exam item: Any idea what inhibition at 200 µM came out for `Cc1nn(-c2ccccc2)c(O)c1/N=N/c1cccc2ncccc12` on MDM2 (Homo sapiens, UniProt Q00987)?
Marked response: 72.4%

Exam item: Any idea what inhibition at 200 µM came out for C=CCn1c(SCC(=O)N2N=C(c3ccco3)CC2c2ccco2)nnc1-c1ccncc1 (centres unmarked) on MDM2 (Homo sapiens, UniProt Q00987)?
Marked response: > 80%

Exam item: Any idea what inhibition at 200 µM came out for O=C(c1cc2n(n1)C(C(F)(F)F)CC(c1ccc(Br)cc1)N2)N(Cc1ccccc1)c1ccccc1 (centres unmarked) on MDM2 (Homo sapiens, UniProt Q00987)?
Marked response: < 50%

Exam item: Any idea what inhibition at 200 µM came out for O=C(O)CC1c2ccccc2CCN1S(=O)(=O)c1ccccc1 (centres unmarked) on MDM2 (Homo sapiens, UniProt Q00987)?
Marked response: > 80%

Exam item: Any idea what inhibition at 200 µM came out for `O=S(=O)(Nc1nc2ccccc2nc1Nc1cccc(O)c1)c1ccc(Cl)cc1` on MDM2 (Homo sapiens, UniProt Q00987)?
Marked response: > 80%

Exam item: Any idea what inhibition at 200 µM came out for `CCOC(=O)/C=C1\NC(C)(C)Cc2cc(OC)c(OC)cc21` on MDM2 (Homo sapiens, UniProt Q00987)?
Marked response: < 50%

Exam item: Any idea what inhibition at 200 µM came out for `CCOC(=O)c1nnn(-c2nonc2N)c1CNc1ccccc1` on MDM2 (Homo sapiens, UniProt Q00987)?
Marked response: 68.6%

Exam item: Any idea what inhibition at 200 µM came out for `CCc1nnc(NC(=O)CSc2nnc(COc3ccccc3)n2-c2ccc(C)cc2)s1` on MDM2 (Homo sapiens, UniProt Q00987)?
Marked response: 63.7%

Exam item: Any idea what inhibition at 200 µM came out for `COc1ccc(OCc2nnc3sc(COc4ccccc4Cl)nn23)cc1` on MDM2 (Homo sapiens, UniProt Q00987)?
Marked response: < 50%

Exam item: Any idea what inhibition at 200 µM came out for `CCOC(=O)c1c(-c2ccccc2)oc2ccc(O)c(CN(C)C)c12` on MDM2 (Homo sapiens, UniProt Q00987)?
Marked response: < 50%

The measurements presented in this section are drawn from paper PMC8369186.
